Recorded values, source paper PMC9482650.

Molecular target: DLG4_1, P78352
Sequence (P78352 62-152): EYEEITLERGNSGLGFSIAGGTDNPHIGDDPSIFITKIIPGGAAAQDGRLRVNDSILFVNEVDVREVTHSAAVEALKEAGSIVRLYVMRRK
Assay: holdup assay
Design: key: below the threshold = too weak to quantify, mostly under pKd 3.1 to 4
Details: plain residues with an end cap or a label only (N-terminal biotin on a linker: ado-ado)
This listing pairs binders with measured pKd.
experimentalEndpoint: pKd

- binder: "DDENIRTSDV [PLEKHA2, Q9HB19]"
  experimentalEndpoint: "pKd"
  dataValue: 3.69
- binder: "SAKVRTVTSV [RASL11B, Q9BPW5]"
  experimentalEndpoint: "pKd"
  dataValue: 4.65
- binder: "PDGQCTVTEV [RNF146, Q9NTX7]"
  experimentalEndpoint: "pKd"
  dataValue: 4.6
- binder: "EVEEFPETSV [TRPV3, Q8NET8]"
  experimentalEndpoint: "pKd"
  dataValue: 4.36
- binder: "TSSMRGMDAV [RSRC2, Q7L4I2]"
  experimentalEndpoint: "pKd"
  dataValue: 3.49
- binder: "FNSYSLTGYV [CLDN2, P57739]"
  experimentalEndpoint: "pKd"
  dataValue: 3.51
- binder: "VNKSKLLTDV [KCNA1, Q09470]"
  experimentalEndpoint: "pKd"
  dataValue: 4.08
- binder: "SGSLKLMTTV [DACT1, Q9NYF0]"
  experimentalEndpoint: "pKd"
  dataValue: 5.02
- binder: "LPAHHNATRL [SLC34A1, Q06495]"
  experimentalEndpoint: "pKd"
  dataValue: 3.51
- binder: "QSARLWETSI [ADAM22, Q9P0K1]"
  experimentalEndpoint: "pKd"
  dataValue: 3.92
- binder: "RHGSCVETSL [TMEM151B, Q8IW70]"
  experimentalEndpoint: "pKd"
  dataValue: 3.98
- binder: "SKENVQETQI [LRRC4B, Q9NT99]"
  experimentalEndpoint: "pKd"
  dataValue: 4.02
- binder: "AKPSRISTVV [IQSEC2, Q5JU85]"
  experimentalEndpoint: "pKd"
  dataValue: 4.82
